This listing pairs variants with measured abundance fitness.
B1: Histone-lysine N-methyltransferase SETD2, residues 2382 to 2430; numbered along this chain, Q9BYW2 (parent)
chain: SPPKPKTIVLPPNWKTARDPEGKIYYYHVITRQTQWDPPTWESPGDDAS

Variants of: B1
Assay: abundance fitness (aPCA) (normalised: wild type 0, dead -1); higher = more abundant; growth selection in yeast, the domain comes from the species named
Conditions: Homo sapiens
Write the number on its own, no unit after it.

Known results for variants:
P38E | -0.493
D19P | -0.426
R18M | -0.086
P11Q | -0.186
D37E | 0.049

Give the value of abundance fitness reported for the following: Q33G -0.798

Quote abundance fitness reported for V9K please. 0.022
